- tgt: human muscarinic M2 receptor (Homo sapiens, UniProt P08172)
- Sequence (P08172 whole entry): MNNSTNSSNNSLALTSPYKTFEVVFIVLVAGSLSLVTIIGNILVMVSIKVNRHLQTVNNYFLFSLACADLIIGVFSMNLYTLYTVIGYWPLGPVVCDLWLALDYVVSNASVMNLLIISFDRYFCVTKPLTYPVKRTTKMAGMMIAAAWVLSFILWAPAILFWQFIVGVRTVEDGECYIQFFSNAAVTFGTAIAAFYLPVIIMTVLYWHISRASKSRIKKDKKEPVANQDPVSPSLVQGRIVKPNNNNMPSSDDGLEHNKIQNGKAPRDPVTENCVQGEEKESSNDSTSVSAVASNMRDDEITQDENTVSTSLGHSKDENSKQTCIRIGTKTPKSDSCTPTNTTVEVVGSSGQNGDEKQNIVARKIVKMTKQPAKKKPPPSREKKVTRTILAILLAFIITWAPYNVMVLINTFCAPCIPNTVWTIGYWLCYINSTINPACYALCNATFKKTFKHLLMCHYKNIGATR
- protocol_text: Alphascreen Surefire phospho-ERK1/2 functional assay, M2
- experimental_setup: CHO, read-out: % Emax cf. ACh, M2, CHO cells stably expressing human M2; relative to ACh
Classify as follows. Reported Emax greater than or equal to 9%: Condition met. Reported Emax below: Condition not met.

Example cases with answers are listed next.
molecule	discrete_label
CCOC(=O)N1CCC2(CC(N3CCC(c4ccnc(N)n4)CC3)C2)C1 (single isomer, unassigned) [3-8 Isomer 2]	Condition not met
CCOC(=O)N1CCC2(CC(N3CCC(N4CC(F)(F)C[C@@H]4C(=O)NC)CC3)C2)C1 (single isomer, unassigned) [2-88 Isomer 2]	Condition met
CCOC(=O)N1CCC2(CC(N3CCC(c4cccc(OC)n4)CC3)C2)C1 (single isomer, unassigned) [3-13 Isomer 2]	Condition not met
CCOC(=O)N1CCC2(CC(N3CCC(N4CCCC[C@@H]4C(=O)OC)CC3)C2)C1 (single isomer, unassigned) [4-15 Isomer 2]	Condition not met
CCOC(=O)N1CCC2(CC(N3CCC([C@@H]4CCCN4CC(F)(F)F)CC3)C2)C1 (single isomer, unassigned) [2-69 Isomer 2]	Condition not met
CCOC(=O)N1CCC2(CC(N3CCC([C@@H]4CCCN4C(=O)N(C)C4COC4)CC3)C2)C1 (single isomer, unassigned) [2-57 Isomer 2]	Condition met
CCOC(=O)N1CCC2(CC(N3CCC([C@@H]4CCCN4C(=S)NC)CC3)C2)C1 (single isomer, unassigned) [2-75 Isomer 2]	Condition not met
CCOC(=O)N1CCC2(CC(N3CCC([C@@H]4CCCN4CCC(F)(F)F)CC3)C2)C1 (single isomer, unassigned) [2-70 Isomer 2]	Condition not met

Exercise: Exam item: decide whether the reported Emax for CCOC(=O)N1CCC2(CC(N3CCC(N4CC(F)(F)C[C@@H]4C(N)=O)CC3)C2)C1 (single isomer, unassigned) [2-90 Isomer 2] is at least 9%.
Key: Condition not met

Exercise: Exam item: decide whether the reported Emax for CCOC(=O)N1CCC2(CC(N3CCC([C@@H]4CCCN4C(=O)NC)CC3)C2)C1 (single isomer, unassigned) [2-17 Isomer 2] is at least 9%.
Key: Condition not met

Exercise: Exam item: decide whether the reported Emax for CCOC(=O)N1CCC2(CC(N3CCC(c4nccs4)CC3)C2)C1 (single isomer, unassigned) [1-25 Isomer 2] is at least 9%.
Key: Condition met

Exercise: Exam item: decide whether the reported Emax for CCOC(=O)N1CCC2(CC(N3CCC([C@@H]4CCCN4C(=O)NCC(F)(F)F)CC3)C2)C1 (single isomer, unassigned) [2-26 Isomer 2] is at least 9%.
Key: Condition met

====

- tgt: human muscarinic M1 receptor (Homo sapiens)
- protocol_text: Alphascreen Surefire phospho-ERK1/2 functional assay, M1
- Assay type: cell-based
- experimental_setup: CHO cells stably expressing human M1; phospho-ERK1/2; * = variable results; read-out: pEC50 M1 (converted)
I'd appreciate it if you marked entries met when EC50 is lower than 0.4 µM and not met when it is not.

Exercise: Take the molecule CCOC(=O)N1CCC2(CC(N3CCC(N4CCCC4c4nnn(C)n4)CC3)C2)C1 (single isomer, unassigned) [2-129 Isomer 2] and say whether its EC50 is less than 0.4 µM.
Key: not met

Exercise: Take the molecule CCOC(=O)N1CCC2(CC(N3CCC(c4cc(C)cnc4OC)CC3)C2)C1 (single isomer, unassigned) [3-12 Isomer 2] and say whether its EC50 is less than 0.4 µM.
Key: met

Exercise: Take the molecule CCOC(=O)N1CCC2(CC(N3CCC(C4CCCN4C(=O)NC)CC3)C2)C1 (single isomer, unassigned) [2-16 Isomer 2] and say whether its EC50 is less than 0.4 µM.
Key: met

Exercise: Take the molecule CCOC(=O)N1CCC2(CC(N3CCC([C@H]4CCCN4C(=O)OC)CC3)C2)C1 (single isomer, unassigned) [2-13 Isomer 2] and say whether its EC50 is less than 0.4 µM.
Key: not met

Exercise: Take the molecule CCOC(=O)N1CCC2(CC(N3CCC(N4C(=O)CC[C@@H]4C)CC3)C2)C1 (single isomer, unassigned) [2-115 Isomer 2] and say whether its EC50 is less than 0.4 µM.
Key: met

Exercise: Take the molecule CCOC(=O)N1CCC2(CC(N3CCC(N4CCCC4c4ccon4)CC3)C2)C1 (single isomer, unassigned) [2-127 Isomer 2] and say whether its EC50 is less than 0.4 µM.
Key: not met

Exercise: Take the molecule CCOC(=O)N1CCC2(CC(N3CCC(c4c(CC)cnn4C)CC3)C2)C1 (single isomer, unassigned) [1-60 Isomer 2] and say whether its EC50 is less than 0.4 µM.
Key: met

Exercise: Take the molecule CCOC(=O)N1CCC2(CC(N3CCC(c4nnco4)CC3)C2)C1 (single isomer, unassigned) [1-28 Isomer 2] and say whether its EC50 is less than 0.4 µM.
Key: not met

Exercise: Take the molecule CCOC(=O)N1CCC2(CC(N3CCC([C@@H]4CCCN4C(=O)N4CCC(F)(F)C4)CC3)C2)C1 (single isomer, unassigned) [2-37 Isomer 2] and say whether its EC50 is less than 0.4 µM.
Key: not met

Exercise: Take the molecule COC(=O)N1CCC2(CC(N3CCC(c4ccnn4C)CC3)C2)C1 (mixture of isomers) [1-20 Mixture of diastereomers] and say whether its EC50 is less than 0.4 µM.
Key: not met

Exercise: Take the molecule CCOC(=O)N1CCC2(CC(N3CCC(n4cnnn4)CC3)C2)C1 (single isomer, unassigned) [1-62 Isomer 2] and say whether its EC50 is less than 0.4 µM.
Key: not met

Exercise: Take the molecule CCOC(=O)N1CCC2(CC(N3CCC(c4nc(C)cn4C)CC3)C2)C1 (single isomer, unassigned) [1-12 Isomer 2] and say whether its EC50 is less than 0.4 µM.
Key: not met

====

Give Emax for every item shown.
- tgt: UniProtKB P11229
- Sequence (P11229 1-460): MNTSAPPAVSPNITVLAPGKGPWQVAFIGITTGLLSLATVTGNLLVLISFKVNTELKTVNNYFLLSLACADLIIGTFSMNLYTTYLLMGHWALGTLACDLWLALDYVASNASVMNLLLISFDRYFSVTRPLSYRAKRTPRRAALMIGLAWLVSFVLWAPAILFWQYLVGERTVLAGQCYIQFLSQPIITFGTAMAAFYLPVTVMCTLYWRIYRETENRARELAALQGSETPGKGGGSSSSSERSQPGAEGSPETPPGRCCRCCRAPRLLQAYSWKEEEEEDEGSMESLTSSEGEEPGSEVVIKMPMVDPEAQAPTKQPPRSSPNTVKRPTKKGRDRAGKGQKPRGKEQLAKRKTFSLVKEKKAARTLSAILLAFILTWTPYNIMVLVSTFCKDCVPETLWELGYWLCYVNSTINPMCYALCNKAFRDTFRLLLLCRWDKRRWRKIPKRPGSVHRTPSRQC
- protocol_text: Alphascreen Surefire phospho-ERK1/2 functional assay, M1
- Type: cell-based
- experimental_setup: CHO, read-out: % Emax cf. ACh, M1, CHO cells stably expressing human M1; relative to ACh
Answers are plain numbers, in %.

A selection of reference data follows.
compound	Emax, %
CCOC(=O)N1CCC2(CC(N3CCC([C@@H]4CCCN4C(=O)N(C)OC)CC3)C2)C1 (single isomer, unassigned) [2-34 Isomer 1]	74
CCOC(=O)N1CCC2(CC(N3CCC(c4nc(C#N)c[nH]4)CC3)C2)C1 (single isomer, unassigned) [1-4 Isomer 2]	55

Now for the compound whose Emax we want.
Exercise: Please look up its Emax: CCOC(=O)N1CCC2(CC(N3CCC(c4nccn4CC(=O)O)CC3)C2)C1 (single isomer, unassigned) [1-53 Isomer 2]
Key: 38

====

- tgt: human muscarinic M4 receptor (Homo sapiens)
- Construct: expressed in transfected cells
- Sequence (P08173 whole entry): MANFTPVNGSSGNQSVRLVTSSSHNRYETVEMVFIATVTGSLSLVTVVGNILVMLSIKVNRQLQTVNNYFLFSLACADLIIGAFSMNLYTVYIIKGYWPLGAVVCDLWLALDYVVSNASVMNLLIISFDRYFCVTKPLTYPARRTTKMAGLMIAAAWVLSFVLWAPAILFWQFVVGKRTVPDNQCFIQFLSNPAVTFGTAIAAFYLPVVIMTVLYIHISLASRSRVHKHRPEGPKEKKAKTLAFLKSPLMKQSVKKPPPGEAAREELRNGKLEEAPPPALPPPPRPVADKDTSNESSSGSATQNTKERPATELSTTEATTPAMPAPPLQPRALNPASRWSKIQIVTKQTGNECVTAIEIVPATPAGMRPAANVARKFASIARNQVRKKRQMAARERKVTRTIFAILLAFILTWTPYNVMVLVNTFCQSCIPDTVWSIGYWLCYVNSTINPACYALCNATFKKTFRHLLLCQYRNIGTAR
- protocol_text: Alphascreen Surefire phospho-ERK1/2 functional assay, M4
- Format: cell-based
- experimental_setup: CHO cells stably expressing human M4; phospho-ERK1/2; * = variable results; read-out: pEC50 M4 (converted)
I'd appreciate it if you marked entries Fulfilled when EC50 is lower than 0.01 µM and Not fulfilled when it is not.

Exercise: Take the compound CCOC(=O)N1CCC2(CC(N3CCC(n4cc(C)cn4)CC3)C2)C1 (single isomer, unassigned) [1-34 Isomer 2] and say whether its EC50 is less than 0.01 µM.
Key: Fulfilled

Exercise: Take the compound CCOC(=O)N1CCC2(CC(N3CCC(N4C[C@@H](F)C[C@@H]4C(=O)OC)CC3)C2)C1 (single isomer, unassigned) [2-135 Isomer 2] and say whether its EC50 is less than 0.01 µM.
Key: Not fulfilled

Exercise: Take the compound CCOC(=O)N1CCC2(CC(N3CCC(N4CCCC4c4nnnn4C)CC3)C2)C1 (single isomer, unassigned) [2-130 Isomer 1] and say whether its EC50 is less than 0.01 µM.
Key: Not fulfilled

Exercise: Take the compound CCOC(=O)N1CCC2(CC(N3CCC(N4C(=O)CCC4(C)C)CC3)C2)C1 (single isomer, unassigned) [2-117 Isomer 2] and say whether its EC50 is less than 0.01 µM.
Key: Not fulfilled

Exercise: Take the compound CCOC(=O)N1CCC2(CC(N3CCC(n4nccn4)CC3)C2)C1 (single isomer, unassigned) [1-61 Isomer 2] and say whether its EC50 is less than 0.01 µM.
Key: Not fulfilled

Exercise: Take the compound COC(=O)N1CCC2(CC(N3CCC([C@@H]4CCCN4C(=O)N4CC(F)(F)C4)CC3)C2)C1 (single isomer, unassigned) [2-41 Isomer 2] and say whether its EC50 is less than 0.01 µM.
Key: Not fulfilled

Hello, the source for this data is patent US9926297B2, in case you need it.
